Test system: human plasma proteins
Conditions: 100 nM Compound Concentrations; 48 hours or longer at room temperature
Is Percent of Free Camptothecin Analogs in Human Plasma at least 1%? Then y. If not, n.

Answered examples (3):
>>> category("CCc1c2c(nc3ccc(O)cc13)-c1cc3c(c(=O)n1C2)COC(=O)[C@]3(O)CC [SN-38, 10-hydroxy-7-ethyl camptothecin]")
"y"
>>> category("CC[C@@]1(O)C(=O)OCc2c1cc1n(c2=O)Cc2c-1nc1ccccc1c2CC[Si](C)(C)CCCO")
"y"
>>> category("CC[C@@]1(O)C(=O)OCc2c1cc1n(c2=O)Cc2cc3c(CN(C)C)c(O)ccc3nc2-1")
"y"

Please look at the following compound next.
Q: Does CC[C@@]1(O)C(=O)OCc2c1cc1n(c2=O)Cc2cc3ccccc3nc2-1 have a reported Percent of Free Camptothecin Analogs in Human Plasma of at least 1%?
Ans: n

---

IC50 reference
Test system: A2780/DX5 cells
Experiment: Sulforhodamine B (SRB) cytotoxicity assay in A2780/DX5 cells
Type: cell-based
Details: SRB assay, A2780/DX5 cells; read-out: A2780/ DX5 (IC50)
Report as a plain number; the unit nM is understood.

IC50 for A2780/DX5 cells with input CC[C@@]1(O)C(=O)OCc2c1cc1n(c2=O)Cc2c-1nc1ccccc1c2CC[Si](C)(C)CCCN(C)C [Compound 16] equals 512

IC50 for A2780/DX5 cells with input CC[C@@]1(O)C(=O)OCc2c1cc1n(c2=O)Cc2c-1nc1ccccc1c2CC[Si](C)(C)CCCn1ccnc1 [Compound 14] equals 166

IC50 for A2780/DX5 cells with input CCC1(O)C(=O)OCc2c1cc1n(c2=O)Cc2c-1nc1ccccc1c2CC[Si](C)(C)CCCOC(=O)C1CCC1 (stereo not shown) [Compound 62] equals 39.2

---

Tested on: A2780/DX5 cells
Test: Sulforhodamine B (SRB) cytotoxicity assay in A2780/DX5 cells
Assay type: cell-based
Conditions: Homo sapiens; SRB assay, A2780/DX5 cells; read-out: A2780/ DX5 (IC50)
IC50 reference
Report as a plain number; the unit nM is understood.

Some compounds with recorded IC50:
>>> numeric_readout("CC[C@@]1(O)C(=O)OCc2c1cc1n(c2=O)Cc2c-1nc1ccccc1c2CC[Si](C)(C)CNC(=O)N(C)C")
178
>>> numeric_readout("CC[C@@]1(O)C(=O)OCc2c1cc1n(c2=O)Cc2c-1nc1ccccc1c2CC[Si](C)(C)CCCOC(=O)c1ccco1")
29.2
>>> numeric_readout("CC[C@@]1(O)C(=O)OCc2c1cc1n(c2=O)Cc2c-1nc1ccccc1c2CC[Si](C)(C)CCCOC(C)=O")
32.1
>>> numeric_readout("CC[C@@]1(O)C(=O)OCc2c1cc1n(c2=O)Cc2c-1nc1ccccc1c2CC[Si](C)(C)CSCCO")
21.6
>>> numeric_readout("CCC1(O)C(=O)OCc2c1cc1n(c2=O)Cc2c-1nc1ccccc1c2CC[Si](C)(C)CCC(=O)N(C)C (stereo not shown)")
164

For the next question, use this compound.
get_value(item= CCC1(O)C(=O)OCc2c1cc1n(c2=O)Cc2c-1nc1ccccc1c2CC[Si](C)(C)CCC(=O)O (stereo not shown) , readout=IC50) returns 629

---

System: A2780/DX5 cells
Experiment: Sulforhodamine B (SRB) cytotoxicity assay in A2780/DX5 cells
Assay type: cell-based
Conditions: Homo sapiens; SRB assay, A2780/DX5 cells; read-out: A2780/ DX5 (IC50)
Measurement Name: pIC50
Field pIC50 (float): negative decimal logarithm of the concentration in molar.

Some compounds with recorded pIC50:
>>> numeric_readout("CC[C@@]1(O)C(=O)OCc2c1cc1n(c2=O)Cc2c-1nc1ccccc1c2CC[Si](C)(C)COC(C)=O [Compound 6]")
7.68
>>> numeric_readout("CC[C@@]1(O)C(=O)OCc2c1cc1n(c2=O)Cc2c-1nc1ccccc1c2CC[Si](C)(C)CCCOC(=O)c1ccccc1 [Compound 55]")
6.95
>>> numeric_readout("CC[C@@]1(O)C(=O)OCc2c1cc1n(c2=O)Cc2c-1nc1ccccc1c2CC[Si](C)(C)CSC1=NCCS1 [Compound 34]")
7.26

get_value(item= CC[C@@]1(O)C(=O)OCc2c1cc1n(c2=O)Cc2c-1nc1ccccc1c2CC[Si](C)(C)Cn1cncn1 [Compound 30] , readout=pIC50) returns 7.22

get_value(item= CC[C@@]1(O)C(=O)OCc2c1cc1n(c2=O)Cc2c-1nc1ccccc1c2CC[Si](C)(C)O [Compound 46] , readout=pIC50) returns 7.30

---

pIC50 reference
System: A2780/DX5 cells
Experiment: Sulforhodamine B (SRB) cytotoxicity assay in A2780/DX5 cells
Type: cell-based
Conditions: SRB assay, A2780/DX5 cells; read-out: A2780/ DX5 (IC50)
Field pIC50 (float): negative decimal logarithm of the concentration in molar.

>>> numeric_readout("CCC1(O)C(=O)OCc2c1cc1n(c2=O)Cc2c-1nc1ccccc1c2CC[Si](C)(C)CSC(C)=O (stereo not shown)")
6.90
>>> numeric_readout("CC[C@@]1(O)C(=O)OCc2c1cc1n(c2=O)Cc2c-1nc1ccccc1c2CC[Si](C)(C)CCCNC(=O)Nc1ccccc1")
6.82
>>> numeric_readout("CC[C@@]1(O)C(=O)OCc2c1cc1n(c2=O)Cc2c-1nc1ccccc1c2CC[Si](C)(C)CCCO")
7.45
>>> numeric_readout("CC[C@@]1(O)C(=O)OCc2c1cc1n(c2=O)Cc2c-1nc1ccccc1c2CC[Si](C)(C)CCCNC(=O)C(F)(F)F")
7.25
>>> numeric_readout("CC[C@@]1(O)C(=O)OCc2c1cc1n(c2=O)Cc2c-1nc1ccccc1c2CC[Si](C)(C)CCCS(=O)(=O)c1ccccc1")
7.27

pIC50 for A2780/DX5 cells with input CC[C@@]1(O)C(=O)OCc2c1cc1n(c2=O)Cc2c-1nc1ccccc1c2CC[Si](C)(C)CCCn1cncn1 equals 7.20
